I'd be grateful if you could share measured EC50 for these entries.
system: SARS-CoV-2 prefusion stabilized trimer protein (WIV02 isolate spike protein) (UniProt P0DTC2 14-1213)
test: ELISA

Challenge: GET /values?readout=EC50&item= 10-L12-A (antibody, V domains shown) VH: QAYLQQSGAELVRPGASVKMSCKASGYTFTSYSMHWVKQTPRQGLEWIGAIYPGNGDTSYNQKFKGKATLTVDKSSSTAYMQLSSLTSEDSAVYFCTRDYSNYPFDYWGQGTTLTVSS VL: DIVLTQSPASLAVSLGQRATISCRASKSVSTSGYSYLHWYQQKPGQPPKLLIYLASNLESGVPARFSGSGSGTDFTLNIHPVEEEDAATYYCQHSRELPPTFGGGTKLEIK
Response given: 0.11 nM

Consider now this further binder.
Challenge: GET /values?readout=EC50&item= 9-L13-A (antibody, V domains shown) VH: QVQLKESGPGLVAPSQSLSITCTVSGFSLTSYAISWVRQPPGKGLEWLGLIWTGGGTNYNSALKSRLSISKDNSKSQIFLKMNSLQTDDTARYYCARGPPLIYYGDLYYFDYWGQGTTLTVSS VL: DIQMTQSPSSLSASLGGKVTITCKASQDINKYIAWYQHKPGKGPRLLIHYTSTLQPGIPSRFSGSGSGRDYSFSISNLEPEDIATYYCLQYDNLWTFGGGTKLEIK
Response given: 8.45 nM
